B1: ADD1 (parent)
chain: LRHSFQKQQREKTRWLNSGRGDEA

variants of: B1; assay: protein stability index of a GFP-peptide fusion (GPS, HEK-293T) (PSI 1-6); higher = more stable; conditions: c terminus: a fixed tail appended;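 also: lentivirally expressed fusions sorted by FACS into six bins by GFP to DsRed ratio, PSI derived from sequencing read proportions per bin multiplied by bin number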
READOUT_LABEL: protein stability index
Give the value as a plain number.

Below: 5 variants and their reported protein stability index.
>>> df
   mutations  result
0       E23F    2.28
1       A24E    4.52
2       R20H    4.05
3       W15D    4.42
4        Q8K    3.35

Ask | Output measured protein stability index for this item: `Q8D`
Reply | 3.87

Ask | Note down protein stability index recorded for `L1V`
Reply | 3.71

Ask | Provide one value: measured protein stability index of `D22E`
Reply | 3.89

Ask | Please give measured protein stability index of the following entry: `L16M`
Reply | 3.88

Ask | State, in one line, measured protein stability index of `K12Q`
Reply | 3.85

Ask | // fetch protein stability index given entry `H3D`
Reply | 4.53

Ask | Supply recorded protein stability index for `G19W` here.
Reply | 2.63

Ask | Supply protein stability index value. Item: `R14S`
Reply | 4.03

Ask | Name the recorded protein stability index of the variant listed here: `H3N`
Reply | 3.65

Ask | For the variant `S4N` , report protein stability index.
Reply | 4.03

Ask | // Input: `E11T` . Output its protein stability index only.
Reply | 3.11

Hey, just so you know, these numbers are from the supplement of paper PMC10567573.
